tested on: SN12C renal; assay: NCI-60 one-dose screen, 48 h (100 = growth as untreated, 0 = no growth, -100 = all killed); details: 10 µM unless noted
About 83,000 compounds went through this panel and 20% of them were active in at least one assay; those are over-represented in the sample as a whole.
We use 40% as the dividing line for growth: on or above the line is Criterion met, below is Criterion not met.

compound: C#CCOc1cc(N(CC)CC)ccc1C(C(=O)NC(C)(C)C)N(C(=O)C1CCc2cc(F)ccc2O1)c1ccccc1F (stereo not drawn)
label_value: Criterion met
--
compound: CN(C)CCn1c2ccccc2c2nc3cc(C(F)(F)F)ccc3nc21
label_value: Criterion not met
--
compound: CC(=O)Nc1ccc(-c2cn(-c3cccc(C(=O)Nc4ccc(N5CCN(C)CC5)cc4)c3)nn2)cn1
label_value: Criterion met
--
compound: O=C(CCN1C(=O)/C(=C/c2ccc(F)cc2)SC1=S)N1CCOCC1
label_value: Criterion met
--
compound: O=c1[nH]n(C(=S)N/N=C/c2ccccc2Cl)c(=O)c2ccccc12
label_value: Criterion not met
--
compound: Nc1nc(-c2ccccc2)c(N=Nc2ccc([N+](=O)[O-])cc2Cl)s1
label_value: Criterion met
--
compound: Cc1ccc(NCC(=O)Cn2cc(COc3ccc(C=Nc4cnc5ccccc5c4)cc3)nn2)cc1
label_value: Criterion met
--
compound: COc1ccc([C@H](C)Nc2nc(Cl)nc3ccccc23)cc1
label_value: Criterion met
--
compound: Cc1ccc(C(=O)C(c2c[nH]c3ccccc23)c2c[nH]c3ccccc23)cc1
label_value: Criterion not met
--
compound: CC(C)c1sc(NC(=O)c2cc(NC(=O)c3cc(NC(=O)c4nccn4C)cn3C)cn2C)nc1C(=O)NCCCN(C)C
label_value: Criterion met
--
compound: COc1ccc2[nH]cc(-c3nnc(N)nc3-c3c[nH]c4ncc(Br)cc34)c2c1
label_value: Criterion met
--
compound: Cc1cnc(C(=O)NNc2nc3cc(F)ccc3n3c(C(=O)N4CC5CC(C4)N5)ccc23)cn1
label_value: Criterion not met
--
compound: COCOc1cc2c(=O)c(C)c(C(=O)N[C@@H](Cc3ccccc3)C(O)C(=O)NCc3ccccc3)oc2cc1OC (stereo partly drawn)
label_value: Criterion met
--
compound: COc1ccc(-c2cc(C(=O)NCc3ccccc3)nn2-c2ccc(S(C)(=O)=O)cc2)cc1OC
label_value: Criterion met
--
compound: CC1=C(C(=O)c2ccccc2)C(c2cccc3ccccc23)n2c(nc3ccccc32)N1 (stereo not drawn)
label_value: Criterion met
--
compound: CN(C)CCOc1ccc(C(=O)C2[C@H](c3ccc(Cl)cc3)[C@@H](c3ccccc3)NC23C(=O)Nc2ccccc23)cc1 (stereo partly drawn)
label_value: Criterion met
--
compound: O=C(/C=C/Nc1ccc2oc(=O)ccc2c1)c1cc2cc(Br)ccc2oc1=O
label_value: Criterion met
--
compound: CC(=O)c1cc(C(=O)c2ccccc2)n2c1ccc1ccccc12
label_value: Criterion met
--
compound: O=C(O)c1cccc(-c2ccc(/C=N/NC(=O)c3[nH]c4ccc(Br)cc4c3-c3ccccc3)s2)c1
label_value: Criterion met
--
compound: CC1=C(C(=O)OCc2ccccc2)C(c2c(O)cc(O)cc2O)n2c(nc3ccccc32)N1 (stereo not drawn)
label_value: Criterion met
--
compound: O=c1cc(-c2ccccc2)oc2cc(OCCCC[P+](c3ccccc3)(c3ccccc3)c3ccccc3)cc(O)c12
label_value: Criterion not met
--
compound: CC12CC[C@@H]3[C@]4(C)COC(c5cn[nH]c5-c5ccc(Br)cc5)O[C@@H]4CC[C@@]3(C)[C@@H]1CC(C1=CCOC1=O)O2 (stereo partly drawn)
label_value: Criterion met
--
compound: N#Cc1cnn(C(=O)c2ccccc2Br)c1NC(=O)c1ccc(Br)cc1Cl
label_value: Criterion met
--
compound: Cc1ccc(S(=O)(=O)c2nc(S(=O)(=O)c3ccc(C)cc3)c(N3CCC(O)CC3)s2)cc1
label_value: Criterion met
--
compound: CC(=O)Nc1cccc(-c2nc3cc(-c4ccc(O)cc4)ccc3n2C)c1
label_value: Criterion met
--
compound: C=C1CCC2C3(C)COC(c4cccs4)OC3CCC2(C)C1CC(Sc1ccccc1)C1=CCOC1=O (stereo not drawn)
label_value: Criterion met
--
compound: CN(C)CCn1c2ccccc2c2nc3cc4ccccc4cc3nc21
label_value: Criterion not met
--
compound: Cn1cc(-c2cc(N)n3nc(-c4cn(C)c5ccc(Cl)cc45)cc3n2)c2ccccc21
label_value: Criterion met
--
compound: COc1ccc(C(=O)/C=C/c2ccc3ccccc3c2)cc1S(N)(=O)=O
label_value: Criterion not met
--
compound: N/C(=N\c1nc2ccccc2s1)NC(=O)NCCCCCCO
label_value: Criterion met
--
compound: O=C(Nc1ccccc1)N1CCN(c2cc(-c3cn(-c4ccccc4)nc3-c3cccc(O)c3)ccn2)CC1
label_value: Criterion met
--
compound: CC(/C=C1\SC(=S)N(CCCC(=O)NC(CC(C)C)C(=O)O)C1=O)=C\c1ccccc1 (stereo not drawn)
label_value: Criterion met
--
compound: N#Cc1c(-c2cccnc2)cc(-c2ccc3ccccc3c2)[nH]c1=O
label_value: Criterion met
--
compound: Cn1nc(C(F)(F)F)cc1-c1cc(Cl)c(COc2ccc(Cl)cc2)c(-c2ccc(Cl)c(C(F)(F)F)c2)c1O
label_value: Criterion not met
--
compound: O=C(c1ccccc1)c1ccc2nc(-c3ccc(F)cc3)[nH]c2c1
label_value: Criterion not met
--
compound: Cn1cc(-c2cc(N)n3nc(-c4c[nH]c5ccccc45)cc3n2)c2cccnc21
label_value: Criterion not met
--
compound: C=C1CCC2C3(C)COC(c4cccc(F)c4)OC3CCC2(C)C1C/C=C1/C(=O)OCC1O (stereo not drawn)
label_value: Criterion not met
